These measurements were taken from patent US20250213701A1.

# reported IC50; entries follow
- Tested on: VCaP cells
- assay-protocol: Anti-proliferative toxicity against prostate cancer cell line Vcap (CCK8)
- Assay type: cell-based, human
- test-settings: Homo sapiens, 72 h, 3 days, CCK8

Sample records with IC50:
# molecule, IC50
measured = [
    ("C[C@]12C=CC(=O)N[C@@H]1CC[C@@H]1[C@@H]2CC[C@]2(C)[C@@H](C(=O)Nc3cccc(N[C@@H]4CCC[C@@H](Nc5cccc6c5C(=O)N([C@H]5CCC(=O)NC5=O)C6=O)C4)c3)CC[C@@H]12", "≤ 0.1 nM"),
    ("C[C@]12C=CC(=O)N[C@@H]1CC[C@@H]1[C@@H]2CC[C@]2(C)[C@@H](C(=O)Nc3ccc(OCCCCCCNc4cccc5c4C(=O)N(C4CCC(=O)NC4=O)C5=O)cc3)CC[C@@H]12 (stereo partly shown)", "> 1000 nM"),
    ("C[C@]12C=CC(=O)N[C@@H]1CC[C@@H]1[C@@H]2CC[C@]2(C)[C@@H](C(=O)NCCCCCCNc3cccc4c3C(=O)N(C3CCC(=O)NC3=O)C4=O)CC[C@@H]12 (stereo partly shown)", "> 1000 nM"),
]

As a next step, examine the molecule that follows.
Value of measured IC50 for the entry `C[C@]12C=CC(=O)N[C@@H]1CC[C@@H]1[C@@H]2CC[C@]2(C)[C@@H](C(=O)Nc3cccc(N[C@@H]4CCC[C@@H](Nc5cccc6c5CN([C@H]5CCC(=O)NC5=O)C6=O)C4)c3)CC[C@@H]12` : 10 to 1000 nM

====

- System: VCaP cells
- assay-protocol: Anti-proliferative toxicity against prostate cancer cell line Vcap (CCK8)
- Assay type: cell-based, human
- test-settings: 0.00010 μM, 3 days
measurement-name: Anti-proliferative toxicity data in VCaP cells (%)
Give a bare numeral; the unit % is implied.

Sample records with Anti-proliferative toxicity data in VCaP cells:
# compound, observed
measured = [
    ("C[C@]12C=CC(=O)N[C@@H]1CC[C@@H]1[C@@H]2CC[C@]2(C)[C@@H](C(=O)Nc3cccc(OCCCNc4cccc5c4C(=O)N(C4CCC(=O)NC4=O)C5=O)c3)CC[C@@H]12 (stereo partly shown) [C29]", 25.8),
    ("C[C@]12C=CC(=O)N[C@@H]1CC[C@@H]1[C@@H]2CC[C@]2(C)[C@@H](C(=O)Nc3cccc(N[C@@H]4CCC[C@@H](Nc5cccc6c5C(=O)N(C5CCC(=O)NC5=O)C6=O)C4)c3)CC[C@@H]12 (stereo partly shown) [C59]", 78.6),
    ("C[C@]12C=CC(=O)N[C@@H]1CC[C@@H]1[C@@H]2CC[C@]2(C)[C@@H](C(=O)Nc3cccc(NCCCNc4cccc5c4C(=O)N(C4CCC(=O)NC4=O)C5=O)c3)CC[C@@H]12 (stereo partly shown) [C50]", 22.8),
]

As a next step, examine the compound that follows.
Value of measured Anti-proliferative toxicity data in VCaP cells for the entry C[C@]12C=CC(=O)N[C@@H]1CC[C@@H]1[C@@H]2CC[C@]2(C)[C@@H](C(=O)Nc3cccc(N[C@@H]4CCC[C@@H](Nc5cccc6c5C(=O)N([C@H]5CCC(=O)NC5=O)C6=O)C4)c3)CC[C@@H]12 [C63] : 80.2

====

# reported IC50; entries follow
- Tested on: VCaP cells
- assay-protocol: Anti-proliferative toxicity against prostate cancer cell line Vcap (CCK8)
- Type: cell-based, human
- test-settings: Homo sapiens, 72 h, 3 days, CCK8

Sample records with IC50:
# compound, IC50
measured = [
    ("C[C@]12C=CC(=O)N[C@@H]1CC[C@@H]1[C@@H]2CC[C@]2(C)[C@@H](C(=O)N3CCC(CN4CCN(c5cccc6c5C(=O)N(C5CCC(=O)NC5=O)C6=O)CC4)CC3)CC[C@@H]12 (stereo partly drawn)", "> 1000 nM"),
    ("C[C@]12C=CC(=O)N[C@@H]1CC[C@@H]1[C@@H]2CC[C@]2(C)[C@@H](C(=O)Nc3cccc(OCCCNc4ccc5c(c4)C(=O)N(C4CCC(=O)NC4=O)C5=O)c3)CC[C@@H]12 (stereo partly drawn)", "> 1000 nM"),
    ("C[C@]12C=CC(=O)N[C@@H]1CC[C@@H]1[C@@H]2CC[C@]2(C)[C@@H](C(=O)Nc3cccc(N[C@H]4C[C@H](Nc5cccc6c5C(=O)N(C5CCC(=O)NC5=O)C6=O)CC(F)(F)C4)c3)CC[C@@H]12 (stereo partly drawn)", "0.1 to 10 nM"),
]

Value of measured IC50 for the entry C[C@]12C=CC(=O)N[C@@H]1CC[C@@H]1[C@@H]2CC[C@]2(C)[C@@H](C(=O)NCCCCCCNc3ccc4c(c3)C(=O)N(C3CCC(=O)NC3=O)C4=O)CC[C@@H]12 (stereo partly drawn) : > 1000 nM

Value of measured IC50 for the entry C[C@]12C=CC(=O)N[C@@H]1CC[C@@H]1[C@@H]2CC[C@]2(C)[C@@H](C(=O)Nc3ccc(OCCCCCCCNc4ccc5c(c4)C(=O)N(C4CCC(=O)NC4=O)C5=O)cc3)CC[C@@H]12 (stereo partly drawn) : > 1000 nM

Value of measured IC50 for the entry CC1[C@H](Nc2cccc(NC(=O)[C@H]3CC[C@H]4[C@@H]5CC[C@H]6NC(=O)C=C[C@]6(C)[C@H]5CC[C@]34C)c2)CCC[C@H]1Nc1cccc2c1C(=O)N(C1CCC(=O)NC1=O)C2=O (stereo partly drawn) : 0.1 to 10 nM

Value of measured IC50 for the entry C[C@]12C=CC(=O)N[C@@H]1CC[C@@H]1[C@@H]2CC[C@]2(C)[C@@H](C(=O)Nc3cccc(OCCCOc4cccc5c4C(=O)N(C4CCC(=O)NC4=O)C5=O)c3)CC[C@@H]12 (stereo partly drawn) : 0.1 to 10 nM

Value of measured IC50 for the entry C[C@]12C=CC(=O)N[C@@H]1CC[C@@H]1[C@@H]2CC[C@]2(C)[C@@H](C(=O)Nc3cccc(N[C@@H]4COC[C@@H](Nc5cccc6c5C(=O)N(C5CCC(=O)NC5=O)C6=O)C4)c3)CC[C@@H]12 (stereo partly drawn) : 10 to 1000 nM

Value of measured IC50 for the entry C[C@]12C=CC(=O)N[C@@H]1CC[C@@H]1[C@@H]2CC[C@]2(C)[C@@H](C(=O)Nc3cccc(N4CCC(CN5CCN(c6cccc7c6C(=O)N(C6CCC(=O)NC6=O)C7=O)CC5)CC4)c3)CC[C@@H]12 (stereo partly drawn) : > 1000 nM
